# assay-system: Histamine H1 receptor (Rattus norvegicus, UniProt P31390)
# Sequence (P31390 whole entry): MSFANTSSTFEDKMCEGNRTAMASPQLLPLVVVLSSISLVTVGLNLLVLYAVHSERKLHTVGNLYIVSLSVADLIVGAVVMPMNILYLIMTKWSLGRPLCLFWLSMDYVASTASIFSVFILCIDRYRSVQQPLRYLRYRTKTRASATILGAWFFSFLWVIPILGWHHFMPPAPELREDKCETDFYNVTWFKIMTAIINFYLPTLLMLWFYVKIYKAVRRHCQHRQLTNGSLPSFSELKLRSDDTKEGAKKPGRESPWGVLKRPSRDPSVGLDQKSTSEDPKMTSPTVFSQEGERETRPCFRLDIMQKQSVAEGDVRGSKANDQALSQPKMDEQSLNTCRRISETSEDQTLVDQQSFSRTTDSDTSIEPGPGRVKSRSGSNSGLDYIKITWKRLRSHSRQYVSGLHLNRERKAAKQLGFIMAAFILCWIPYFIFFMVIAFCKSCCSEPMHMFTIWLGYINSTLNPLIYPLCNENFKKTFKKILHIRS
# measurement-description: Histamine H1 receptor binding assay (3H-pyrilamine, rat cerebellum membrane)
# condition-info: read-out: H1 Inhibition rate (%)
Classification scheme (inhibition at 10 µM): range A: < 40%; range B: ≥ 40% and < 50%; range C: ≥ 50%

Field: example entries. Status: answers known.
Query: Tag the class for O=C(CCCCN1CCC(c2noc3cc(F)ccc23)CC1)c1cc2c3c(c1)CCN3C(=O)CC2
Result: range A

Query: Same for O=C1CCc2cc(C(O)CCCN3CCC(c4noc5cc(F)ccc45)CC3)cc3c2N1CC3 (stereo not shown)
Result: range A

Query: # iterate: O=C(CCCN1CCC(c2noc3cc(F)ccc23)CC1)c1cc2c3c(c1F)CCN3C(=O)CC2
Result: range C

---
Query: Which inhibition at 10 µM band matches O=C(CCCN1CCC(c2noc3cc(F)ccc23)CC1)c1cc2c3c(c1)CCC(=O)N3CCC2 ?
Result: range B

Query: And O=C(CN1CCC(c2noc3cc(F)ccc23)CC1)c1cc2c3c(c1)CCN3C(=O)CC2 ?
Result: range C

Query: Repeat for the following molecule: O=C(CCN1CCC(c2noc3cc(F)ccc23)CC1)c1cc2c3c(c1)CCN3C(=O)CC2
Result: range B

* * *

# Tested on: α1 norepinephrine receptor
# measurement-description: α1 norepinephrine receptor binding assay (3H-prazosin, rat cortex membrane)
# condition-info: test compound final concentration 10^−5 M; 3H-prazosin; rat cortex membrane
value-kind: α1 Inhibition rate (%)
The reply should consist of the numeric value with the unit placed after it.

Sample answers from the record:
Query: Request the reported α1 Inhibition rate (%) associated with O=C1CCc2cc(CCCN3CCC(c4noc5cc(F)ccc45)CC3)cc3c2N1CC3 [Compound 14]
Result: 50.91%

Query: Now give it for O=C1CCc2cc(C(O)CCCN3CCC(c4noc5cc(F)ccc45)CC3)cc3c2N1CC3 (stereo not drawn) [Compound 16] too.
Result: 51.19%

Next compound, α1 Inhibition rate (%) to be filled in.
Query: Using the record for O=C1CCc2cc(C(O)CCN3CCC(c4noc5cc(F)ccc45)CC3)cc3c2N1CCC3 (stereo not drawn) [Compound 3] , report its α1 Inhibition rate (%).
Result: 51.42%

* * *

# assay-system: 5HT2A receptor (Rattus norvegicus, UniProt P14842)
# Sequence (P14842 whole entry): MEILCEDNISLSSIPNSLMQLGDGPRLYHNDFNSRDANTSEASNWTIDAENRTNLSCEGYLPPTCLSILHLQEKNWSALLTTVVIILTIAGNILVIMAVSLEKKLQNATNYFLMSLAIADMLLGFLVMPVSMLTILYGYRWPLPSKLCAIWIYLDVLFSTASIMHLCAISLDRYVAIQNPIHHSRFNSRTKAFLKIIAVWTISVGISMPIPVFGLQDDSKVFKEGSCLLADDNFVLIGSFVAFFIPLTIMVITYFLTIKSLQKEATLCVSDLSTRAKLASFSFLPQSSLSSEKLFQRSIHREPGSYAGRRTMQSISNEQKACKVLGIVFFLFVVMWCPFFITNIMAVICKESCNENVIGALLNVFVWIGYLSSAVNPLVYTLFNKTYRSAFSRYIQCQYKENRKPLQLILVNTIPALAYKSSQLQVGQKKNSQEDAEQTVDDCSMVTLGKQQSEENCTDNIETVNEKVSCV
# measurement-description: 5HT2A receptor binding assay ([3H]-Ketanserin, rat striatum membrane)
# condition-info: read-out: 5HT2A Inhibition rate (%)
value-kind: inhibition at 10 µM (%)
Write down the numeric answer in % and omit the unit.

Consider the worked cases shown below.
Query: Which value of inhibition at 10 µM has been reported for O=C1CCc2cc(C(O)CCCN3CCC(c4noc5cc(F)ccc45)CC3)cc3c2N1CC3 (stereo not shown) in the records?
Result: 98.8

Query: Repeat with O=C1CCc2cc(C(O)CCN3CCC(c4noc5cc(F)ccc45)CC3)cc3c2N1CCC3 (stereo not shown)
Result: 92.5

Further cases:
Query: Which measured inhibition at 10 µM value corresponds to O=C1CCc2cc(CCCN3CCC(c4noc5cc(F)ccc45)CC3)cc3c2N1CC3 ?
Result: 93.9

Query: Ok, now O=C(CCN1CCC(c2noc3cc(F)ccc23)CC1)c1cc2c3c(c1)CCN3C(=O)CC2
Result: 94.4

Query: Check O=C(CCCN1CCC(c2noc3cc(F)ccc23)CC1)c1cc2c3c(c1)CCC(=O)N3CCC2 too.
Result: 99.5

Query: Same thing, different compound: O=C(CN1CCC(c2noc3cc(F)ccc23)CC1)c1cc2c3c(c1)CCC(=O)N3CCC2
Result: 84.9

Query: Repeat for the following compound: CC1CC(=O)N2CCCc3cc(CCCCN4CCC(c5noc6cc(F)ccc56)CC4)cc1c32 (stereo not shown)
Result: 83.5

Query: Same read-out for CC1CC(=O)N2CCCc3cc(C(=O)CCCN4CCC(c5noc6cc(F)ccc56)CC4)cc1c32 (stereo not shown) ?
Result: 90.2

Query: Okay, and O=C(CCCN1CCC(c2noc3cc(F)ccc23)CC1)c1cc2c3c(c1F)CCC(=O)N3CC2 ?
Result: 90.2

Query: Follow-up item: O=C1CCc2cc(CCCCCN3CCC(c4noc5cc(F)ccc45)CC3)cc3c2N1CC3
Result: 80.3

* * *

# assay-system: 5HT2A receptor (Rattus norvegicus, UniProt P14842)
# measurement-description: 5HT2A receptor binding assay ([3H]-Ketanserin, rat striatum membrane)
# condition-info: read-out: 5HT2A Inhibition rate (%)
value-kind: inhibition at 10 µM (%)
Numbers only; they are read as %.

Query: I am curious: what inhibition at 10 µM value has been reported for O=C(CCCN1CCC(c2noc3cc(F)ccc23)CC1)c1cc2c3c(c1F)CCN3C(=O)CC2 [Compound 21] ?
Result: 91.1

---
Query: Param item = O=C(CCCCN1CCC(c2noc3cc(F)ccc23)CC1)c1cc2c3c(c1)CCC(=O)N3CCC2 [Compound 8] ; retrieve measured inhibition at 10 µM.
Result: 93

Query: Next entry: O=C1CCc2cc(C(O)CCCCN3CCC(c4noc5cc(F)ccc45)CC3)cc3c2N1CC3 (stereo not shown) [Compound 19]
Result: 81.1

Query: Similarly, O=C(CCCCN1CCC(c2noc3cc(F)ccc23)CC1)c1cc2c3c(c1)CCN3C(=O)CC2 [Compound 18] ?
Result: 87.8

* * *

# assay-system: 5HT2C receptor (Rattus norvegicus, UniProt P08909)
# Construct: from tissue; host or cells: rat brain striatum
# measurement-description: 5HT2C receptor binding assay ([3H]-mesulergine, rat striatum membrane)
# condition-info: test compound final concentration 10^−5 M; [3H]-mesulergine; rat striatum membrane; read-out: 5HT2C Inhibition rate (%)
Use 60% as the dividing line for inhibition at 10 µM, with the line itself on the label 1 side and lower values as label 0.

Query: Is inhibition at 10 µM at least 60%? Consider O=C1CCc2cc(C(O)CCCN3CCC(c4noc5cc(F)ccc45)CC3)cc3c2N1CC3 (centres unmarked)
Result: label 0

Next:
Query: Reported inhibition at 10 µM reaches at least 60% for O=C1CCc2cc(CCCCN3CCC(c4noc5cc(F)ccc45)CC3)cc3c2N1CCC3 ?
Result: label 1

Query: Now try O=C(CN1CCC(c2noc3cc(F)ccc23)CC1)c1cc2c3c(c1)CCN3C(=O)CC2 .
Result: label 1

Query: Next up: O=C(CCCN1CCC(c2noc3cc(F)ccc23)CC1)c1cc2c3c(c1)CCC(=O)N3CCC2
Result: label 1

Query: Repeat for the following compound: CC1CC(=O)N2CCCc3cc(CCCCN4CCC(c5noc6cc(F)ccc56)CC4)cc1c32 (centres unmarked)
Result: label 0

* * *

# maps each entry to its inhibition at 10 µM
# assay-system: Histamine H1 receptor (Rattus norvegicus)
# measurement-description: Histamine H1 receptor binding assay (3H-pyrilamine, rat cerebellum membrane)
# condition-info: read-out: H1 Inhibition rate (%)
A number alone suffices; assume %.

Query: inhibition at 10 µM for O=C1CCc2cc(CCCCN3CCC(c4noc5cc(F)ccc45)CC3)cc3c2N1CC3 [Compound 17] ?
Result: 35.4

Others:
Query: What measured inhibition at 10 µM goes with O=C1CCc2cc(CCCCN3CCC(c4noc5cc(F)ccc45)CC3)cc3c2N1CCC3 [Compound 7] ?
Result: 46.4

Query: Also O=C1CCc2cc(CCCCCN3CCC(c4noc5cc(F)ccc45)CC3)cc3c2N1CC3 [Compound 20] , if possible.
Result: 49.3

Query: Request: O=C(CCN1CCC(c2noc3cc(F)ccc23)CC1)c1cc2c3c(c1)CCC(=O)N3CCC2 [Compound 2]
Result: 47.9

Query: Another compound to check: O=C1CCc2cc(C(O)CCN3CCC(c4noc5cc(F)ccc45)CC3)cc3c2N1CC3 (stereo not shown) [Compound 13]
Result: 46.9

Query: # iterate: O=C1CCc2cc(C(O)CCCN3CCC(c4noc5cc(F)ccc45)CC3)cc3c2N1CCC3 (stereo not shown) [Compound 6]
Result: 49.1

Query: Then this compound: O=C(CCCN1CCC(c2noc3cc(F)ccc23)CC1)c1cc2c3c(c1F)CCC(=O)N3CC2 [Compound 22]
Result: 45.2

Query: Also O=C1CCc2cc(CCCN3CCC(c4noc5cc(F)ccc45)CC3)cc3c2N1CCC3 [Compound 4] , if possible.
Result: 44

Query: Same lookup for O=C1CCc2cc(C(O)CCN3CCC(c4noc5cc(F)ccc45)CC3)cc3c2N1CCC3 (stereo not shown) [Compound 3] , please.
Result: 42.5

* * *

The following compounds are listed with their measured inhibition at 10 µM values.
# assay-system: 5HT2C receptor (Rattus norvegicus, UniProt P08909)
# Construct: from tissue; host or cells: rat brain striatum
# Sequence (P08909 33-460): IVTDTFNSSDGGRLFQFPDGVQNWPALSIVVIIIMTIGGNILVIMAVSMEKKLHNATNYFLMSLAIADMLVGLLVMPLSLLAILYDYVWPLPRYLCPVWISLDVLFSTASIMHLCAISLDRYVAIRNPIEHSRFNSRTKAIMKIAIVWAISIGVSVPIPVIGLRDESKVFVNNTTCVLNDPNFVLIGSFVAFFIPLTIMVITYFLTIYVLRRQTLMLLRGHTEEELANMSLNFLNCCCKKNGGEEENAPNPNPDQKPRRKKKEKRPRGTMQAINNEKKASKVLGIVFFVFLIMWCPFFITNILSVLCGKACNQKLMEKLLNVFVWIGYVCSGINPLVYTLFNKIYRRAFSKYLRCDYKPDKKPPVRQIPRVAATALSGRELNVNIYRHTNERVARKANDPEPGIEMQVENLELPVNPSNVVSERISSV
# measurement-description: 5HT2C receptor binding assay ([3H]-mesulergine, rat striatum membrane)
# condition-info: test compound final concentration 10^−5 M; [3H]-mesulergine; rat striatum membrane; read-out: 5HT2C Inhibition rate (%)
Answer in %, number only, no unit symbol.

Please review the following examples before continuing.
Query: For the compound shown here, O=C(CCCCN1CCC(c2noc3cc(F)ccc23)CC1)c1cc2c3c(c1)CCC(=O)N3CCC2 [Compound 8] , give the reported inhibition at 10 µM.
Result: 59.5

Query: Repeat for the following compound: O=C1CCc2cc(C(O)CCN3CCC(c4noc5cc(F)ccc45)CC3)cc3c2N1CCC3 (stereo not drawn) [Compound 3]
Result: 61.6

Query: What do we get for CC1CC(=O)N2CCCc3cc(C(=O)CCCN4CCC(c5noc6cc(F)ccc56)CC4)cc1c32 (stereo not drawn) [Compound 9] ?
Result: 54

Query: Item: O=C(CCCN1CCC(c2noc3cc(F)ccc23)CC1)c1cc2c3c(c1)CCN3C(=O)CC2 [Compound 15]
Result: 52.7

Query: Then O=C(CCN1CCC(c2noc3cc(F)ccc23)CC1)c1cc2c3c(c1)CCN3C(=O)CC2 [Compound 12] ?
Result: 56.5

New cases:
Query: Reported inhibition at 10 µM, compound O=C1CCc2cc(C(O)CCCN3CCC(c4noc5cc(F)ccc45)CC3)cc3c2N1CCC3 (stereo not drawn) [Compound 6] : ____
Result: 61.6

Query: Here is the next compound: O=C(CCCN1CCC(c2noc3cc(F)ccc23)CC1)c1cc2c3c(c1F)CCN3C(=O)CC2 [Compound 21]
Result: 67.9

Query: Also need O=C(CCCN1CCC(c2noc3cc(F)ccc23)CC1)c1cc2c3c(c1F)CCC(=O)N3CC2 [Compound 22] , thanks.
Result: 76.3

Query: Now try O=C(CCN1CCC(c2noc3cc(F)ccc23)CC1)c1cc2c3c(c1)CCC(=O)N3CCC2 [Compound 2] .
Result: 63.9

Query: Query O=C1CCc2cc(C(O)CCN3CCC(c4noc5cc(F)ccc45)CC3)cc3c2N1CC3 (stereo not drawn) [Compound 13] next
Result: 53.6

Query: Ok, now O=C1CCc2cc(CCCCN3CCC(c4noc5cc(F)ccc45)CC3)cc3c2N1CC3 [Compound 17]
Result: 51.1

Query: Next compound: O=C1CCc2cc(CCCCCN3CCC(c4noc5cc(F)ccc45)CC3)cc3c2N1CC3 [Compound 20]
Result: 53

Query: Request: O=C1CCc2cc(C(O)CCCCN3CCC(c4noc5cc(F)ccc45)CC3)cc3c2N1CC3 (stereo not drawn) [Compound 19]
Result: 57.1

Query: O=C(CN1CCC(c2noc3cc(F)ccc23)CC1)c1cc2c3c(c1)CCC(=O)N3CCC2 [Compound 1] ?
Result: 84.6

Query: Now the compound O=C1CCc2cc(CCCN3CCC(c4noc5cc(F)ccc45)CC3)cc3c2N1CCC3 [Compound 4]
Result: 60
